System: HIVIIIB
test_details: Antiviral Activity: anti-HIV activity in MT4 cells infected with HIVIIIB (MTT)
Format: cell-based
cond: Human immunodeficiency virus 1, 120 h, MOI 0.003, 5 days, n=four duplicate determinations
pEC50: −log10 of the molar value.
readout_kind: pEC50

• Cc1cccc(C)c1NCC(=O)N[C@@H](Cc1ccccc1)[C@@H](O)C[C@H](Cc1ccccc1)NC(=O)O[C@H]1CO[C@H]2OCC[C@H]21 [Example 9] = 6.60
• Cc1cccc(C)c1OCC(=O)N[C@@H](Cc1ccccc1)[C@@H](O)C[C@H](Cc1ccccc1)NC(=O)OC1CCSC1 (mixture of isomers) [Example 30] = 6.00
• Cc1cc(N)cc(C)c1OCC(=O)N[C@@H](Cc1ccccc1)C[C@H](O)[C@H](Cc1ccccc1)NC(=O)O[C@H]1CO[C@H]2OCC[C@H]21 [Example 1] = 8.05
• CC(C)c1nc(CN(C)C(=O)N[C@@H](C(=O)N[C@@H](Cc2ccccc2)C[C@H](O)[C@H](Cc2ccccc2)NC(=O)OC2COC3OCCC23)C(C)C)cs1 (some centres unmarked) [Example 39] = 7.26
• Cc1cccc(C)c1OCC(=O)N[C@@H](Cc1ccccc1)[C@@H](O)C[C@H](Cc1ccccc1)NC(=O)OC1CCCSC1 (mixture of isomers) [Example 31] = 5.96

1. O=C(N[C@@H](Cc1ccccc1)C[C@H](O)[C@H](Cc1ccccc1)NC(=O)c1ccccc1)O[C@H]1CO[C@H]2OCC[C@H]21 [Example 68]
2. O=C(N[C@@H](Cc1ccccc1)[C@@H](O)C[C@H](Cc1ccccc1)NC(=O)c1cccc(O)c1)O[C@@H]1CO[C@@H]2OCC[C@@H]21 [Example 58]
3. Nc1ccc(Cl)c(C(=O)N[C@@H](Cc2ccccc2)[C@@H](O)C[C@H](Cc2ccccc2)NC(=O)O[C@H]2CO[C@H]3OCC[C@H]32)c1 [Example 62]
4. Cc1cc2[nH]c(=O)[nH]c2c(C)c1OCC(=O)N[C@@H](Cc1ccccc1)C[C@H](O)[C@H](Cc1ccccc1)NC(=O)O[C@H]1CO[C@H]2OCC[C@H]21 [Example 25]
5. CC(C)c1nc(CN(C)C(=O)N[C@H](C(=O)N[C@@H](Cc2ccccc2)[C@@H](O)C[C@H](Cc2ccccc2)NC(=O)O[C@H]2CO[C@H]3OCC[C@H]32)C(C)C)cs1 [Example 46]
Could you please sort these 5 entries by pEC50 from high to low? Sort and list the labels as requested.
5, 3, 1, 4, 2

----------
system_under_test: HIV-1 protease (Human immunodeficiency virus type 1 group M subtype B, UniProt P04585)
test_details: Fluorogenic Assay for Screening Inhibitors of HIV Protease
cond: pH 4.5
readout_kind: inhibition at 0.0005 µM (%)

Some solved cases for reference:
* Cc1cccc(C)c1OCC(=O)N[C@@H](Cc1ccccc1)[C@@H](O)C[C@H](Cc1ccccc1)NC(=O)OC1CCSC1 (mixture of isomers) [Example 30] | 52
* Cc1cc(N)cc(C)c1OCC(=O)N[C@@H](Cc1ccccc1)C[C@H](O)[C@H](Cc1ccccc1)NC(=O)O[C@H]1CO[C@H]2OCC[C@H]21 [Example 1] | 78
* Cc1ccc(O)c(C)c1OCC(=O)N[C@@H](Cc1ccccc1)C[C@H](O)[C@H](Cc1ccccc1)NC(=O)O[C@H]1CO[C@H]2OCC[C@H]21 [Example 74] | 89
* Cc1cccc(C)c1OCC(=O)N[C@@H](Cc1ccccc1)[C@@H](O)C[C@H](Cc1ccccc1)NC(=O)OC1CCCSC1 (mixture of isomers) [Example 31] | 52

I. O=C(N[C@@H](Cc1ccccc1)C[C@H](O)[C@H](Cc1ccccc1)NC(=O)c1ccc(O)cc1)O[C@H]1CO[C@H]2OCC[C@H]21 [Example 64]
II. O=C(N[C@@H](Cc1ccccc1)C[C@H](O)[C@H](Cc1ccccc1)NC(=O)OC1COC2OCCC12)OCc1cncs1 (stereo partly drawn) [Example 40]
Param metric = inhibition at 0.0005 µM; output whichever of I , II has the minimum value. State the label of the item chosen.
II
(II: 43%, I: 64%)

Reference source for all entries: patent US5905068A
